# EXPERIMENTAL SYSTEM: full-length MALT1 protein His-MALT1(1-824) (Homo sapiens)
# Sequence (Q9UDY8 1-824): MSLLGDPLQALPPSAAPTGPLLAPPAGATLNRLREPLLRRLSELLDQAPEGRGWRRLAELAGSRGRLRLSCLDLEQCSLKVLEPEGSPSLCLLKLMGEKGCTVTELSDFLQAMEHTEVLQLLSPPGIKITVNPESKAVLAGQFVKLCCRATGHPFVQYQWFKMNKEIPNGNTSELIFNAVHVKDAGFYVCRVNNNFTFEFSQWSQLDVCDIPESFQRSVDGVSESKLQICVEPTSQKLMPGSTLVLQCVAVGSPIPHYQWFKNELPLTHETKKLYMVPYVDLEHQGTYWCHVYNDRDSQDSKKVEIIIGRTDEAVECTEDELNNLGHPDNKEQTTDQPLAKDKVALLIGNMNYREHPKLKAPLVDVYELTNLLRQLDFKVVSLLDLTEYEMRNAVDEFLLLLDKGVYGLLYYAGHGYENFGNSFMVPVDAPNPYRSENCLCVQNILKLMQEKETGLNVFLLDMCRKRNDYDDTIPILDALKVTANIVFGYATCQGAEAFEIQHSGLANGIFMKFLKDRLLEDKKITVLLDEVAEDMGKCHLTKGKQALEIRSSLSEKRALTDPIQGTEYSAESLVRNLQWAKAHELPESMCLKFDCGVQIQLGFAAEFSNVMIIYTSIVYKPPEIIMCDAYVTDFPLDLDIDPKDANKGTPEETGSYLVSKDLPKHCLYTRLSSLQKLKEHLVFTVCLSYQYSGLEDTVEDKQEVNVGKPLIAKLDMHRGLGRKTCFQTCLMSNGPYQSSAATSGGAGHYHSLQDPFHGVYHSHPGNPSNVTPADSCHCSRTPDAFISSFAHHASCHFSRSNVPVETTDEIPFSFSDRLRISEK
MEASURED METRIC: IC50

1. Cn1cc([C@@]2(C)C[C@H](C(=O)Nc3ccnc(C(F)(F)F)c3)c3cnc4cc(Cl)nn4c32)cn1 (single isomer, unassigned); 10 to 100 nM
2. Cn1ccc([C@]2(C)C[C@@H](C(=O)Nc3cnc(-n4nccn4)c(C(F)(F)F)c3)c3cnc4cc(F)nn4c32)n1 (single isomer, unassigned); ≥ 1000 nM
3. C[C@]1(c2cnn(C(F)F)c2)C[C@@H](C(=O)Nc2cnc(-c3ncccn3)c(C(F)(F)F)c2)c2cnc3cc(F)nn3c21 (single isomer, unassigned); 100 to 1000 nM

---

# EXPERIMENTAL SYSTEM: full-length MALT1 protein His-MALT1(1-824) (Homo sapiens)
# Sequence (Q9UDY8 1-824): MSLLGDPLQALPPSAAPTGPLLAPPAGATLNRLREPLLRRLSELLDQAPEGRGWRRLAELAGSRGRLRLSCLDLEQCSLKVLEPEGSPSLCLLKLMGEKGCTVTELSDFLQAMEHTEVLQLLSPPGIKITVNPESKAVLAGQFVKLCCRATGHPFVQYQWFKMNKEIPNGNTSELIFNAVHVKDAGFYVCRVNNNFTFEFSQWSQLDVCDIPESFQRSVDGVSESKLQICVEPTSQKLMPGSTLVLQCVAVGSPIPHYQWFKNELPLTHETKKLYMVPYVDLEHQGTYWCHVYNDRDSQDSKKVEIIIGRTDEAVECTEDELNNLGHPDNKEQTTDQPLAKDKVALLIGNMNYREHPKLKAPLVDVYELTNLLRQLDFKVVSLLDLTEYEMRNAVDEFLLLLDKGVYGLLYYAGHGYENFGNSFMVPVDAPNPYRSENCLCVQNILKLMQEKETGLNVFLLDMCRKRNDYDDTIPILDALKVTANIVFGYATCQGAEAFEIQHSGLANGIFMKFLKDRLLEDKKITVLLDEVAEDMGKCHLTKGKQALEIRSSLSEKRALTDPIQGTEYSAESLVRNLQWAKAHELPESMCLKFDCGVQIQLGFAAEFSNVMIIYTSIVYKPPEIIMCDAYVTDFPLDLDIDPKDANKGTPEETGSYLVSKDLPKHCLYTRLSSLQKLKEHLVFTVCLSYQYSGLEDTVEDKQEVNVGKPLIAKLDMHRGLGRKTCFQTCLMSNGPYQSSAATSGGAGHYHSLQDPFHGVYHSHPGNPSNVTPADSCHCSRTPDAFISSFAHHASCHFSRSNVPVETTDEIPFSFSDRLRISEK
pIC50: −log10 of the molar value.
The following molecules are listed with their measured pIC50 values.
MEASURED METRIC: pIC50

1. C[C@]1(c2cnn(C(F)F)c2)C[C@H](C(=O)Nc2cnc(-c3ncccn3)c(C(F)(F)F)c2)c2cnc3cc(F)nn3c21 (single isomer, unassigned); 7.00 to 8.00
2. Cc1cc(NC(=O)[C@@H]2C[C@](C)(c3cnn(C)c3)c3c2cnc2cc(F)nn32)cnc1OC(F)F (single isomer, unassigned); ≤ 6.00
3. C[C@]1(c2cnn(C(F)F)c2)C[C@H](C(=O)Nc2cnc(-n3nccn3)c(C(F)(F)F)c2)c2cnc3cc(F)nn3c21 (single isomer, unassigned); > 8.00
4. CCn1cc([C@@]2(C)C[C@@H](C(=O)Nc3cnc(-n4nccn4)c(Cl)c3)c3cnc4cc(F)nn4c32)cn1 (single isomer, unassigned); 6.00 to 7.00
5. Cn1cc([C@]2(C)C[C@H](C(=O)Nc3cnc(-n4nccn4)c(Cl)c3)c3cnc4c(F)c(F)nn4c32)cn1 (single isomer, unassigned); 6.00 to 7.00
6. Cc1cc2ncc3c(n2n1)[C@@](C)(c1ccn(C(F)F)n1)C[C@@H]3C(=O)Nc1cnc(-c2ncccn2)c(C(F)(F)F)c1 (racemic); 7.00 to 8.00
7. C[C@]1(c2cnn(C3CC3)c2)C[C@@H](C(=O)Nc2cnc(-n3nccn3)c(Cl)c2)c2cnc3cc(F)nn3c21 (single isomer, unassigned); ≤ 6.00
8. Cn1ccc([C@@]2(C)C[C@@H](C(=O)Nc3cnc(-n4nccn4)c(Cl)c3)c3cnc4cc(F)nn4c32)n1 (single isomer, unassigned); 6.00 to 7.00
9. CC(F)(F)n1cc([C@@]2(C)C[C@@H](C(=O)Nc3cnc(-n4nccn4)c(Cl)c3)c3cnc4cc(F)nn4c32)cn1 (single isomer, unassigned); 6.00 to 7.00
10. Cn1cc([C@]2(C)C[C@H](C(=O)Nc3ccnc(C(F)(F)F)c3)c3cnc4cc(Cl)nn4c32)cn1 (single isomer, unassigned); 6.00 to 7.00
11. Cn1ccc([C@]2(C)C[C@H](C(=O)Nc3cnc(-n4nccn4)c(Cl)c3)c3cnc4cc(F)nn4c32)n1 (single isomer, unassigned); 6.00 to 7.00

---

# Tested on: IL10 secretion, OCI-LY10 cells
# PROTOCOL SUMMARY: Human IL10 secretion assay in OCI-LY10 cells (MSD)
# Assay type: cell-based
# ASSAY CONTEXT: 24 h incubation, relative to DMSO set as 100%, read-out: IL-10 Secretion IC50
# IC50 listing for each entry below
MEASURED METRIC: IC50

1) C[C@]1(c2ccn(C(F)F)n2)C[C@H](C(=O)Nc2cnc(-n3nccn3)c(C(F)(F)F)c2)c2cnc3cc(F)nn3c21 (single isomer, unassigned); 0.01 to 0.1 µM
2) C[C@]1(c2ccn(C(F)F)n2)C[C@H](C(=O)Nc2cnc(-n3nccn3)c(Cl)c2)c2cnc3cc(F)nn3c21 (single isomer, unassigned); 0.01 to 0.1 µM
3) Cn1cc([C@@]2(C)C[C@H](C(=O)Nc3cnc(-n4nccn4)c(Cl)c3)c3cnc4cc(Cl)nn4c32)cn1 (single isomer, unassigned); 0.01 to 0.1 µM
4) Cn1cc([C@@]2(C)C[C@H](C(=O)Nc3cnc(-n4nccn4)c(C(F)(F)F)c3)c3cnc4cc(F)nn4c32)cn1 (single isomer, unassigned); 0.01 to 0.1 µM
5) CC(F)(F)n1cc([C@@]2(C)C[C@H](C(=O)Nc3cnc(-n4nccn4)c(Cl)c3)c3cnc4cc(F)nn4c32)cn1 (single isomer, unassigned); 0.01 to 0.1 µM
6) C[C@]1(c2cnn(C(F)F)c2)C[C@H](C(=O)Nc2cnc(-c3ncccn3)c(C(F)(F)F)c2)c2cnc3cc(F)nn3c21 (single isomer, unassigned); 0.1 to 1 µM
7) Cn1cc([C@@]2(C)C[C@H](C(=O)Nc3cnc(-n4nccn4)c(Cl)c3)c3cnc4c(F)c(F)nn4c32)cn1 (single isomer, unassigned); 0.1 to 1 µM
8) Cn1cc([C@@]2(C)C[C@H](C(=O)Nc3cnc(-n4nccn4)c(Cl)c3)c3cnc4cc(F)nn4c32)cn1 (single isomer, unassigned); 0.1 to 1 µM
9) C[C@]1(c2ccn(C(F)F)n2)C[C@H](C(=O)Nc2cnc(-c3ncccn3)c(C(F)(F)F)c2)c2cnc3cc(F)nn3c21 (single isomer, unassigned); 0.01 to 0.1 µM

---

# Test system: IL10 secretion, OCI-LY10 cells
# PROTOCOL SUMMARY: Human IL10 secretion assay in OCI-LY10 cells (MSD)
# Assay type: cell-based
# ASSAY CONTEXT: 24 h incubation, relative to DMSO set as 100%, read-out: IL-10 Secretion IC50
MEASURED METRIC: IC50

1. C[C@]1(c2ccn(C(F)F)n2)C[C@H](C(=O)Nc2cnc(OC(F)F)c(C#N)c2)c2cnc3cc(F)nn3c21 (single isomer, unassigned); 10 to 100 nM
2. Cn1ccc([C@@]2(C)C[C@H](C(=O)Nc3cnc(OC(F)F)c(C#N)c3)c3cnc4cc(F)nn4c32)n1 (single isomer, unassigned); 100 to 1000 nM
3. C[C@]1(c2cnn(C3CC3)c2)C[C@H](C(=O)Nc2cnc(-n3nccn3)c(Cl)c2)c2cnc3cc(F)nn3c21 (single isomer, unassigned); 10 to 100 nM
4. Cn1cc([C@@]2(C)C[C@H](C(=O)Nc3cnc(OC(F)F)c(C#N)c3)c3cnc4cc(F)nn4c32)cn1 (single isomer, unassigned); 10 to 100 nM
5. Cn1ccc([C@@]2(C)C[C@H](C(=O)Nc3cnc(-n4nccn4)c(Cl)c3)c3cnc4cc(F)nn4c32)n1 (single isomer, unassigned); 100 to 1000 nM
6. Cn1ccc([C@@]2(C)C[C@H](C(=O)Nc3cnc(-n4nccn4)c(C(F)(F)F)c3)c3cnc4cc(F)nn4c32)n1 (single isomer, unassigned); 100 to 1000 nM

Where these numbers come from: patent US20260049085A1
